# Test system: SKBR-3 (human breast cancer cell line)
# assay-protocol: cells
# Type: cell-based
# test-conditions: SRB assay, 72 h exposure; read-out: Anticancer activity IC50 (nM) ± SD, SKBR-3
reported-property: IC50
For clarity, give the value followed by its unit.

[
  {
    "compound": "COc1cc2c(c(OC)c1OC)-c1ccc(OCc3ccc(/C=C/c4cnc5ccccc5c4)cc3)c(=O)cc1[C@@H](NC(C)=O)CC2 [Compound 8c]",
    "IC50": "1.05 nM"
  }
]

Now for another entry.
**Query** Using SKBR-3 (human breast cancer cell line) as the test system, report measured IC50 of COc1cc2c(c(OC)c1OC)-c1ccc(=O)c(O)cc1[C@@H](NC(C)=O)CC2 [Compound 2, colchiceine, reference compound] .
**Result** 1.04 nM

---

# Tested on: Human Dermal Fibroblasts cell line (HDF)
# test-conditions: read-out: Toxicity IC50 (nM) ± SD, HDF; healthy cell line HDF, SRB assay, 72 h exposure
reported-property: IC50 (nM)
Enter your answer as a number in nM; do not include the unit.

[
  {
    "sample-smiles": "COc1cc2c(c(OC)c1OC)-c1ccc(OCc3ccc(/C=C/c4ccccn4)cc3)c(=O)cc1[C@@H](NC(C)=O)CC2",
    "value-unit": "nM",
    "IC50": 4.83
  }
]

**Query** Could you please provide reported IC50 for `COc1cc2c(c(OC)c1OC)-c1ccc(=O)c(OCc3ccc(/C=C/c4ccccn4)cc3)cc1[C@@H](NC(C)=O)CC2` ? Thanks!
**Result** 5.11

---

# assay-protocol: in vitro
# test-conditions: human, Toxicity IC50 (nM) ± SD, HDF, healthy cell line HDF, SRB assay, 72 h exposure
One threshold, 6 nM, splits the recorded IC50 values: lower ones are Condition met, equal or higher ones are Condition not met.

[
  {
    "compound": "COc1cc2c(c(OC)c1OC)-c1ccc(=O)c(OCc3cn(Cc4ccc(C#N)cc4)nn3)cc1[C@@H](NC(C)=O)CC2 [Compound 5b]",
    "cat": "Condition met"
  }
]

**Query** Determine if COc1cc2c(c(OC)c1OC)-c1ccc(OC/C=C/c3ccccc3)c(=O)cc1[C@@H](NC(C)=O)CC2 [Compound 4c] shows IC50 strictly lower than 6 nM.
**Result** Condition met

---

# Test system: SKBR-3, SKOV-3, PC-3, U-87 cells
# assay-protocol: SRB cytotoxicity assay, values summarised over cancer cell lines
# Format: cell-based, human
# test-conditions: Homo sapiens, average over cancer cell lines; read-out: Average anticancer IC50
pIC50: −log10 of the molar value.
reported-property: pIC50

**Query** Could you please provide reported pIC50 for C=CCCOc1ccc2c(cc1=O)[C@@H](NC(C)=O)CCc1cc(OC)c(OC)c(OC)c1-2 [Compound 4h] ? Thanks!
**Result** ~8.82

---

# assay-protocol: in vitro
# test-conditions: human, Toxicity IC50 (nM) ± SD, HDF, healthy cell line HDF, SRB assay, 72 h exposure
// classify(record): look up IC50 in ranges Low: < 4 nM; Mid: ≥ 4 nM and < 8 nM; High: ≥ 8 nM

**Query** Quick check: band for `COc1cc2c(c(OC)c1OC)-c1ccc(OCc3cn([C@@H]4O[C@H](COC(C)=O)[C@@H](OC(C)=O)[C@H](OC(C)=O)[C@H]4NC(C)=O)nn3)c(=O)cc1[C@@H](NC(C)=O)CC2`
**Result** Mid

**Query** Quick check: band for `C#CCOc1ccc2c(cc1=O)[C@@H](NC(C)=O)CCc1cc(OC)c(OC)c(OC)c1-2`
**Result** Low

**Query** Quick check: band for `COc1cc2c(c(OC)c1OC)-c1ccc(OCc3cn(CCCNC4=C5C[C@@H](C)C[C@H](OC)[C@H](O)[C@@H](C)/C=C(\C)[C@H](OC(N)=O)[C@@H](OC)/C=C\C=C(/C)C(=O)NC(=CC4=O)C5=O)nn3)c(=O)cc1[C@@H](NC(C)=O)CC2`
**Result** High

**Query** Quick check: band for `COc1cc2c(c(OC)c1OC)-c1ccc(=O)c(OC/C=C/c3ccccc3)cc1[C@@H](NC(C)=O)CC2`
**Result** Mid

**Query** Quick check: band for `COc1cc2c(c(OC)c1OC)-c1ccc(OCCCN=[N+]=[N-])c(=O)cc1[C@@H](NC(C)=O)CC2`
**Result** Low

**Query** Quick check: band for `COc1cc2c(c(OC)c1OC)-c1ccc(OCc3cn(Cc4ccccc4)nn3)c(=O)cc1[C@@H](NC(C)=O)CC2`
**Result** Low

**Query** Quick check: band for `COc1cc2c(c(OC)c1OC)-c1ccc(OCc3ccc(/C=C/c4ccc5ccccc5c4)cc3)c(=O)cc1[C@@H](NC(C)=O)CC2`
**Result** High

**Query** Quick check: band for `COc1cc2c(c(OC)c1OC)-c1ccc(=O)c(OCc3cn(CCCNC4=C5C[C@@H](C)C[C@H](OC)[C@H](O)[C@@H](C)/C=C(\C)[C@H](OC(N)=O)[C@@H](OC)/C=C\C=C(/C)C(=O)NC(=CC4=O)C5=O)nn3)cc1[C@@H](NC(C)=O)CC2`
**Result** High

**Query** Quick check: band for `CCOC(=O)COc1cc2c(ccc1=O)-c1c(cc(OC)c(OC)c1OC)CC[C@@H]2NC(C)=O`
**Result** Low

---

# Tested on: SKBR-3, SKOV-3, PC-3, U-87 cells
# assay-protocol: SRB cytotoxicity assay, values summarised over cancer cell lines
# Type: cell-based, human
# test-conditions: Homo sapiens, SKBR-3, SKOV-3, PC-3, U-87; read-out: Anticancer IC50 over the studied cancer cell lines
pIC50: −log10 of the molar value.
reported-property: pIC50

[
  {
    "sample-smiles": "COc1cc2c(c(OC)c1OC)-c1ccc(=O)c(OCc3ccc(/C=C/c4cnc5ccccc5c4)cc3)cc1[C@@H](NC(C)=O)CC2",
    "pIC50": "8.76 to 8.99"
  },
  {
    "sample-smiles": "COc1cc2c(c(OC)c1OC)-c1ccc(OCc3ccc(/C=C/c4cnc5ccccc5c4)cc3)c(=O)cc1[C@@H](NC(C)=O)CC2",
    "pIC50": "8.76 to 8.99"
  },
  {
    "sample-smiles": "C/C=C/COc1cc2c(ccc1=O)-c1c(cc(OC)c(OC)c1OC)CC[C@@H]2NC(C)=O",
    "pIC50": "9.01 to 9.03"
  },
  {
    "sample-smiles": "COc1cc2c(c(OC)c1OC)-c1ccc(OCc3ccc(/C=C/c4ccccn4)cc3)c(=O)cc1[C@@H](NC(C)=O)CC2",
    "pIC50": "8.60 to 8.70"
  }
]

Now for another entry.
**Query** Using SKBR-3, SKOV-3, PC-3, U-87 cells as the test system, report measured pIC50 of `COc1cc2c(c(OC)c1OC)-c1ccc(=O)c(OCc3ccc(/C=C/c4ccccn4)cc3)cc1[C@@H](NC(C)=O)CC2` .
**Result** 8.60 to 8.70

---

Here the recorded IC50 is given for each entry.
# assay-protocol: in vitro
# test-conditions: human, Toxicity IC50 (nM) ± SD, HDF, healthy cell line HDF, SRB assay, 72 h exposure
Enter your answer as a number in nM; do not include the unit.

[
  {
    "sample-smiles": "COc1cc2c(c(OC)c1OC)-c1ccc(OCc3cn(Cc4ccc([N+](=O)[O-])cc4)nn3)c(=O)cc1[C@@H](NC(C)=O)CC2",
    "reported-property": "IC50",
    "value-unit": "nM",
    "observed-result": 4.08
  }
]

Now for another entry.
**Query** Could you please provide reported IC50 for `COc1cc2c(c(OC)c1OC)-c1ccc(OCc3ccc(/C=C/c4ccc(CNC5=C6C[C@@H](C)C[C@H](OC)[C@H](O)[C@@H](C)/C=C(\C)[C@H](OC(N)=O)[C@@H](OC)/C=C\C=C(/C)C(=O)NC(=CC5=O)C6=O)cc4)cc3)c(=O)cc1[C@@H](NC(C)=O)CC2` ? Thanks!
**Result** 17.9

---

# assay-protocol: in vitro
# test-conditions: human, Toxicity IC50 (nM) ± SD, HDF, healthy cell line HDF, SRB assay, 72 h exposure
One threshold, 3 nM, splits the recorded IC50 values: lower ones are Condition met, equal or higher ones are Condition not met.

Please review the entries below; each comes with its answer.
[
  {
    "molecule": "COc1cc2c(c(OC)c1OC)-c1ccc(=O)c(OCc3ccc(/C=C/c4cnc5ccccc5c4)cc3)cc1[C@@H](NC(C)=O)CC2",
    "cat": "Condition met"
  },
  {
    "molecule": "COc1cc2c(c(OC)c1OC)-c1ccc(OCc3cn(C4CC(n5cc(C)c(=O)[nH]c5=O)OC4CO)nn3)c(=O)cc1C(NC(C)=O)CC2 (centres unmarked)",
    "cat": "Condition not met"
  },
  {
    "molecule": "COc1cc2c(c(OC)c1OC)-c1ccc(OCc3ccc(/C=C/c4cnc5ccccc5c4)cc3)c(=O)cc1[C@@H](NC(C)=O)CC2",
    "cat": "Condition met"
  },
  {
    "molecule": "C/C=C/COc1cc2c(ccc1=O)-c1c(cc(OC)c(OC)c1OC)CC[C@@H]2NC(C)=O",
    "cat": "Condition met"
  },
  {
    "molecule": "C=CCOc1cc2c(ccc1=O)-c1c(cc(OC)c(OC)c1OC)CC[C@@H]2NC(C)=O",
    "cat": "Condition met"
  }
]

**Query** Determine if `C=Cc1ccc(COc2cc3c(ccc2=O)-c2c(cc(OC)c(OC)c2OC)CC[C@@H]3NC(C)=O)cc1` shows IC50 strictly lower than 3 nM.
**Result** Condition not met

**Query** Determine if `C=CCCOc1cc2c(ccc1=O)-c1c(cc(OC)c(OC)c1OC)CC[C@@H]2NC(C)=O` shows IC50 strictly lower than 3 nM.
**Result** Condition met

**Query** Determine if `C#CCOc1cc2c(ccc1=O)-c1c(cc(OC)c(OC)c1OC)CC[C@@H]2NC(C)=O` shows IC50 strictly lower than 3 nM.
**Result** Condition met

**Query** Determine if `COc1cc2c(c(OC)c1OC)-c1ccc(=O)c(OCc3cn(Cc4ccc([N+](=O)[O-])cc4)nn3)cc1[C@@H](NC(C)=O)CC2` shows IC50 strictly lower than 3 nM.
**Result** Condition not met

**Query** Determine if `COc1cc2c(c(OC)c1OC)-c1ccc(=O)c(OCCCN=[N+]=[N-])cc1[C@@H](NC(C)=O)CC2` shows IC50 strictly lower than 3 nM.
**Result** Condition met

**Query** Determine if `COc1cc2c(c(OC)c1OC)-c1ccc(=O)c(OCc3cn(Cc4ccccc4)nn3)cc1[C@@H](NC(C)=O)CC2` shows IC50 strictly lower than 3 nM.
**Result** Condition not met

**Query** Determine if `C=Cc1ccc(COc2ccc3c(cc2=O)[C@@H](NC(C)=O)CCc2cc(OC)c(OC)c(OC)c2-3)cc1` shows IC50 strictly lower than 3 nM.
**Result** Condition not met

**Query** Determine if `COc1cc2c(c(OC)c1OC)-c1ccc(=O)c(OCc3cn([C@@H]4O[C@H](COC(C)=O)[C@@H](OC(C)=O)[C@H](OC(C)=O)[C@H]4NC(C)=O)nn3)cc1[C@@H](NC(C)=O)CC2` shows IC50 strictly lower than 3 nM.
**Result** Condition not met

**Query** Determine if `COc1cc2c(c(OC)c1OC)-c1ccc(OCc3cn(Cc4ccc(C#N)cc4)nn3)c(=O)cc1[C@@H](NC(C)=O)CC2` shows IC50 strictly lower than 3 nM.
**Result** Condition not met

**Query** Determine if `COc1cc2c(c(OC)c1OC)-c1ccc(OCc3ccc(I)cc3)c(=O)cc1[C@@H](NC(C)=O)CC2` shows IC50 strictly lower than 3 nM.
**Result** Condition not met

**Query** Determine if `C=CCOc1ccc2c(cc1=O)[C@@H](NC(C)=O)CCc1cc(OC)c(OC)c(OC)c1-2` shows IC50 strictly lower than 3 nM.
**Result** Condition met

**Query** Determine if `C=CCCOc1ccc2c(cc1=O)[C@@H](NC(C)=O)CCc1cc(OC)c(OC)c(OC)c1-2` shows IC50 strictly lower than 3 nM.
**Result** Condition met

**Query** Determine if `CCOC(=O)COc1ccc2c(cc1=O)[C@@H](NC(C)=O)CCc1cc(OC)c(OC)c(OC)c1-2` shows IC50 strictly lower than 3 nM.
**Result** Condition met

**Query** Determine if `COc1cc2c(c(OC)c1OC)-c1ccc(=O)c(OCc3ccccc3)cc1[C@@H](NC(C)=O)CC2` shows IC50 strictly lower than 3 nM.
**Result** Condition not met
